# Assay Target: isolated recombinant JAK1 kinase domain (Homo sapiens, UniProt P23458)
# Construct: The activity of the isolated recombinant JAK1 and JAK2 kinase domain was measured
# Sequence (P23458 875-1153 limits assumed): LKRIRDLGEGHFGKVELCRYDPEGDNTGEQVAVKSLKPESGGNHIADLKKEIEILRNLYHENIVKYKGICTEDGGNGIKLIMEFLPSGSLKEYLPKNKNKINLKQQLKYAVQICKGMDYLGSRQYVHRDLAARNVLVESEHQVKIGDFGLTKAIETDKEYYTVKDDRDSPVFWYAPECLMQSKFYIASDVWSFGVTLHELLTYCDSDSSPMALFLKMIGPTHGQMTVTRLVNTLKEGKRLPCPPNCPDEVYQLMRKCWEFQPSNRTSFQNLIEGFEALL
# Run Description: JAK1 enzyme assay (Caliper LabChip, Ki)
# Type: biochemical
# Condition Parameters: recombinant JAK1 kinase domain, 25 μM ATP
pKi: −log10 of the molar value.
Endpoint Name: pKi

1) CC(C)Sc1ccc(OC(F)F)c(-c2nn(Cc3cn(C4CCN(C5COC5)CC4)nn3)cc2NC(=O)c2cnn3cccnc23)c1 [Example 148]
9.40

[P] CCSc1ccc(OC(F)F)c(-c2nn(CC(=O)N3CCC(N(C)CCC#N)CC3)cc2NC(=O)c2cnn3cccnc23)c1 [Example 194]
[Q] CC(C)Sc1ccc(OC(F)F)c(-c2nn(CC(=O)N3CCC(C(=O)N4CCNCC4)CC3)cc2NC(=O)c2cnn3cccnc23)c1 [Example 151]
## Input Select the item whose pKi value is smaller, choosing between P and Q . # respond with the chosen item's label
## Output Q

* * *

# Assay Target: isolated recombinant JAK2 kinase domain (Homo sapiens, UniProt O60674)
# Construct: The activity of the isolated recombinant JAK1 and JAK2 kinase domain was measured
# Sequence (O60674 849-1124 limits assumed): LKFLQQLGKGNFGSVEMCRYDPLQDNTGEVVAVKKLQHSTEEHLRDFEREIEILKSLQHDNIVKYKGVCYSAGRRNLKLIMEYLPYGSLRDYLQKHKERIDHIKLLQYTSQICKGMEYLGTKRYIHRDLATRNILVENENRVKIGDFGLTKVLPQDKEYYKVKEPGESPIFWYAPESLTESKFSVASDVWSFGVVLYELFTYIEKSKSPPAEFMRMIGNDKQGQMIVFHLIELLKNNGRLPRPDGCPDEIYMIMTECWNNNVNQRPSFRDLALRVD
# Run Description: JAK2 enzyme assay (Caliper LabChip, Ki)
# Condition Parameters: 25 μM ATP
# Protocol: JAK Enzyme Assays were Carried Out as Follows: The activity of the isolated recombinant JAK1 and JAK2 kinase domain was measured by monitoring phosphorylation of a peptide derived from JAK3 (Val-Ala-Leu-Val-Asp-Gly-Tyr-Phe-Arg-Leu-Thr-Thr, fluorescently labeled on the N-terminus with 5-carboxyfluorescein) using the Caliper LabChip® technology (Caliper Life Sciences, Hopkinton, Mass.). […]
Endpoint Name: Ki (pM)

1) CSc1ccc(OC(F)F)c(-c2nn(CC(=O)N3CCC(CN4CCNCC4)CC3)cc2NC(=O)c2cnn3cccnc23)c1
680
2) CC(C)Sc1ccc(OC(F)F)c(-c2nn(CC(=O)N3CC4CCCNC4C3)cc2NC(=O)c2cnn3cccnc23)c1 (stereo not drawn)
1100

[1] CSc1ccc(OC(F)F)c(-c2nn(CC(=O)N3CCC(N(C)CC4OCCO4)CC3)cc2NC(=O)c2cnn3cccnc23)c1
[2] CSc1ccc(OC(F)F)c(-c2nn(CC(=O)N3CCC(NCC4(C#N)CC4)CC3)cc2NC(=O)c2cnn3cccnc23)c1
[3] CSc1ccc(OC(F)F)c(-c2nn(CCN[C@@H]3CCOC3)cc2NC(=O)c2cnn3cccnc23)c1
## Input Ordering: ascending Ki. Give the labels in the order specified.
## Output 3, 2, 1
(3: 210 pM, 2: 450 pM, 1: 960 pM)

[P] CC(C)Sc1ccc(OC(F)F)c(-c2nn(CC(=O)N3CCC(N(C)CC(=O)N(C)C)CC3)cc2NC(=O)c2cnn3cccnc23)c1
[Q] CC(C)Sc1ccc(OC(F)F)c(-c2nn(CCN)cc2NC(=O)c2cnn3cccnc23)c1
[R] CSc1ccc(OC(F)F)c(-c2nn(CC(=O)N3CCC(N4CCN(C)CC4)CC3)cc2NC(=O)c2cnn3cccnc23)c1
## Input Sort by Ki, descending. Give the labels in the order specified.
## Output P, R, Q
(P: 1300 pM, R: 700 pM, Q: 390 pM)

[1] CSc1ccc(OC(F)F)c(-c2nn(CC(=O)N3C[C@@H]4CCN[C@@H]4C3)cc2NC(=O)c2cnn3cccnc23)c1
[2] CSc1ccc(OC(F)F)c(-c2nn(CC(=O)N3CCC(N(C)CC4(C#N)CC4)CC3)cc2NC(=O)c2cnn3cccnc23)c1
## Input I need your help: which of the pair 1 , 2 has higher Ki? # respond with the chosen item's label
## Output 1

[A] CSc1ccc(OC(F)F)c(-c2nn(CC(=O)N3CCC(N(C)[C@H]4CCOC4)CC3)cc2NC(=O)c2cnn3cccnc23)c1
[B] CNCCn1cc(NC(=O)c2cnn3cccnc23)c(-c2cc(SC)ccc2OC(F)F)n1
## Input I need your help: which of the pair A , B has higher Ki? # respond with the chosen item's label
## Output A
